- System: PBMC-derived induced microglia-like cells (piMGLC)
- assay details: synaptosome phagocytic index relative to DMSO control (fraction of DMSO); higher = more phagocytosis
- measurement context: concentration: 10 uM (2 uM for compounds listed in Table S2); pretreatment time: 24 h; assay time: 3 h
Where a name gives a salt, the structure may show the parent alone.
endpoint label: synaptosome phagocytic index

CCOC(=O)c1cncn1[C@H](C)c1ccccc1 [Etomidate_(hydrochloride)] ... 0.749
C=C(C)[C@H]1CN[C@H](C(=O)O)[C@H]1CC(=O)O [Kainic_acid] ... 0.701
CCN(C)C(=O)Oc1cccc([C@H](C)N(C)C)c1 [Rivastigmine_(tartrate)] ... 1.02
